Tested on: pig Methylenetetrahydrofolate Reductase (MTHFR), gene 397180
Assay: NVS_ENZ_pMTHFR: NovaScreen (NVS) Enzymatic Assay for pig Methylenetetrahydrofolate Reductase (MTHFR)
Results filed as inconclusive are left out. Calls of active or inactive are those of the source. How the source made its calls: active means hit-call score of the fitted dose curve at least 0.9, where 1 is the maximum; inconclusive means response in the unintended direction; inactive means score below 0.9.
Can you answer with just one of these options? active, inactive

Example entries and their recorded answers appear below.
COC(=O)c1c(C(F)F)nc(C(F)(F)F)c(C2=NCCS2)c1CC(C)C: active
COc1nc(C)nc(NC(=O)NS(=O)(=O)c2ccccc2Cl)n1: inactive
CC(C)(C)C(=O)C(Oc1ccc(Cl)cc1)n1cncn1 (stereo unspecified): inactive
CCc1cccc(CC)c1N(COC)C(=O)CCl: inactive
COP(=O)(OC)OC=C(Cl)Cl: inactive

Now for another entry.
Recorded test call requested for CC(C)Oc1cc(-n2nc(C(C)(C)C)oc2=O)c(Cl)cc1Cl
inactive
